B1: CPEB3 Ribozyme (parent)
chain: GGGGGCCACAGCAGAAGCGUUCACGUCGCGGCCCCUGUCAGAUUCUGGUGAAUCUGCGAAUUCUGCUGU

variants of: B1; experiment: self-cleavage, relative activity (ratio to wild type); higher = more cleavage; co-transcriptional
Give self-cleavage for every item shown.
Give only the figure.

Please give the measured self-cleavage for this variant: G30C A42C
0.441

Please give the measured self-cleavage for this variant: G25A G37U
0.199

Please give the measured self-cleavage for this variant: C6G U36A
0.0334

Please give the measured self-cleavage for this variant: C54G G58U
0.93

Please give the measured self-cleavage for this variant: U38G A42G
0.189

Please give the measured self-cleavage for this variant: G31U U43C
0.393

Please give the measured self-cleavage for this variant: C24A C57G
0.219

Please give the measured self-cleavage for this variant: C12G U20G
0.125

Please give the measured self-cleavage for this variant: G30C G68A
0.899

Please give the measured self-cleavage for this variant: U20C G28A
0.117

Please give the measured self-cleavage for this variant: G31A G56C
0.523

Please give the measured self-cleavage for this variant: G2C G68C
0.114

Please give the measured self-cleavage for this variant: C34A G58A
0.656

Please give the measured self-cleavage for this variant: C6A G65U
0.305

Please give the measured self-cleavage for this variant: A16C U36C
0.165

Please give the measured self-cleavage for this variant: A51G G65U
0.872

Please give the measured self-cleavage for this variant: G56A U67G
0.995

Please give the measured self-cleavage for this variant: A23C U36C
0.679

Please give the measured self-cleavage for this variant: G3U C27U
0.0361

Please give the measured self-cleavage for this variant: G14U U26A
0.555

Please give the measured self-cleavage for this variant: G47U
1

Please give the measured self-cleavage for this variant: G17A U36C
0.225

Please give the measured self-cleavage for this variant: G19U U62C
0.256

Please give the measured self-cleavage for this variant: U61C U64A
0.322

Please give the measured self-cleavage for this variant: C18A G19C
0.0974

Please give the measured self-cleavage for this variant: C29G G68C
0.715

Please give the measured self-cleavage for this variant: C18G C22G
0.236

Please give the measured self-cleavage for this variant: G47U G58C
0.963

Please give the measured self-cleavage for this variant: C12A U61A
0.312

Please give the measured self-cleavage for this variant: G11A G58C
0.876

Please give the measured self-cleavage for this variant: C7A G48U
0.696

Please give the measured self-cleavage for this variant: G14A G50U
0.743

Please give the measured self-cleavage for this variant: G14U U43C
0.472

Please give the measured self-cleavage for this variant: A40C U62A
0.385

Please give the measured self-cleavage for this variant: C6A G68C
0.889

Please give the measured self-cleavage for this variant: U38A U62C
0.594

Please give the measured self-cleavage for this variant: U43A U67A
0.919

Please give the measured self-cleavage for this variant: G19U U61G
0.262

Please give the measured self-cleavage for this variant: G5A U21C
0.56

Please give the measured self-cleavage for this variant: G2U G25U
0.0175

Please give the measured self-cleavage for this variant: A23G U36C
0.891

Every entry's value here was drawn from the RNAGym collection of RNA variant scans (doi:10.7554/elife.80360).
